Test system: NCI/ADR-RES ovarian
Assay: NCI-60 one-dose screen, 48 h (100 = growth as untreated, 0 = no growth, -100 = all killed)
Conditions: 10 µM unless noted
About 83,000 compounds went through this panel and 20% of them were active in at least one assay; those are over-represented in the sample as a whole.
Mark MET for reported growth of 80% or greater; mark NOT MET for anything smaller.

API: above_or_equal(metric=growth, cutoff=80%) for item `CCCCCCNC(=O)c1cc(NCc2cc(O)ccc2O)ccc1O`
NOT MET

API: above_or_equal(metric=growth, cutoff=80%) for item `Clc1ccc(-c2nnc(Cn3ccnc3)o2)cc1`
MET

API: above_or_equal(metric=growth, cutoff=80%) for item CC(C)CCC[C@@H](C)[C@H]1CCC2C3=CCn4c(=O)ccc(=O)n4C3CC[C@@]21C (some centres not stated)
NOT MET

API: above_or_equal(metric=growth, cutoff=80%) for item `COc1cc(-c2ncn(/C=C\c3nnco3)n2)cc(C(F)(F)F)c1`
NOT MET

API: above_or_equal(metric=growth, cutoff=80%) for item `O=S(=O)(Cc1ccccc1)c1nc2ccccc2s1`
MET

API: above_or_equal(metric=growth, cutoff=80%) for item `O=C(CCc1nc(-c2cccc(Cl)c2)no1)Nc1ccccn1`
MET

API: above_or_equal(metric=growth, cutoff=80%) for item `COc1cc2oc3cc(C)oc(=O)c3c2cc1OC`
MET

API: above_or_equal(metric=growth, cutoff=80%) for item `CNC=O`
NOT MET

API: above_or_equal(metric=growth, cutoff=80%) for item `N#Cc1c(Oc2ccc([N+](=O)[O-])cc2)nc2sc3cc(Cl)ccc3n2c1=N`
MET

API: above_or_equal(metric=growth, cutoff=80%) for item O=C(CC1Sc2ccccc2NC1=O)NNc1ccc(F)cc1 (configuration not stated)
NOT MET

API: above_or_equal(metric=growth, cutoff=80%) for item `O=C1Nc2ccccc2/C1=N/N=C/c1c[nH]c2ccccc12`
MET

API: above_or_equal(metric=growth, cutoff=80%) for item `Cc1c(Cl)cccc1NS(=O)(=O)c1ccccc1`
MET

API: above_or_equal(metric=growth, cutoff=80%) for item `Cc1cc(C(c2ccccc2)c2ccccc2)ccc1NS(=O)(=O)c1ccccc1`
MET

API: above_or_equal(metric=growth, cutoff=80%) for item `COc1ccc(-n2nnc(C(=O)NCCc3c[nH]c4ccc(F)cc34)c2C)cc1`
MET

API: above_or_equal(metric=growth, cutoff=80%) for item `c1ccc([P+](CCCc2n(Cc3ccc4ccccc4c3)c3ccccc3[n+]2Cc2ccc3ccccc3c2)(c2ccccc2)c2ccccc2)cc1`
MET

API: above_or_equal(metric=growth, cutoff=80%) for item `N#Cc1c(N)nc2c(nnn2-c2cccc(C(F)(F)F)c2)c1N`
MET

API: above_or_equal(metric=growth, cutoff=80%) for item `CCCCCCCCN(CCCCCCCC)C(=N)c1ccnc2ccccc12`
NOT MET

API: above_or_equal(metric=growth, cutoff=80%) for item `c1ccc2c(c1)ncn2-c1nc2ccccc2n2c1nc1ccccc12`
MET

API: above_or_equal(metric=growth, cutoff=80%) for item `Clc1ccc(/C=C/c2nc(Nc3ccc(Cl)cc3)c3ccccc3n2)cc1`
MET

API: above_or_equal(metric=growth, cutoff=80%) for item `Fc1ccc(Nc2nc3nonc3nc2Nc2ccc(F)cc2)cc1`
NOT MET

API: above_or_equal(metric=growth, cutoff=80%) for item CC12CC(C#N)CCC1O2 (configuration not stated)
MET

API: above_or_equal(metric=growth, cutoff=80%) for item `Clc1ccc(-c2nc(NCCc3ccccc3)nc3c(NCCc4ccccc4)cnn23)cc1`
NOT MET

API: above_or_equal(metric=growth, cutoff=80%) for item `O=C1NN(C(=O)c2ccc(O)cc2)C(c2ccccc2)=N/C1=C\c1cn(-c2ccccc2)nc1-c1ccccc1`
MET

API: above_or_equal(metric=growth, cutoff=80%) for item COc1ccc(C2CC(c3cnccn3)=NN2)cc1OC (configuration not stated)
MET

API: above_or_equal(metric=growth, cutoff=80%) for item `O=c1[nH]nc(-c2ccc(Cl)cc2)cc1Cc1ccccc1`
MET
